assayed.system: biotinylated Gβ1γ2 mutant Trp99Ala (rat) (UniProt P54311)
Sequence (P54311 whole entry W99A, chain 1 of 2): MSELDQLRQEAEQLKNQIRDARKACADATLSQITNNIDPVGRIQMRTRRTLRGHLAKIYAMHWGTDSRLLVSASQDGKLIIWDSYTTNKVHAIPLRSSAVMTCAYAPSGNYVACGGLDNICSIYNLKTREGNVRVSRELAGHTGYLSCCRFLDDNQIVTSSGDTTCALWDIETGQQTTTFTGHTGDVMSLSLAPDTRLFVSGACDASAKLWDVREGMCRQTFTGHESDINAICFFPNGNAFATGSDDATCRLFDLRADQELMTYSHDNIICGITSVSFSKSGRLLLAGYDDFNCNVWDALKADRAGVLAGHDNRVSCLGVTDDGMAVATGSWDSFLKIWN
Sequence (P63212 2-68, chain 2 of 2, further chain): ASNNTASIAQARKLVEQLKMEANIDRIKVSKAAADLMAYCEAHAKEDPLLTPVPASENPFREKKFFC
assay.overview: phage ELISA, % of wild-type b-βγ
Below is a list of entries, each paired with its recorded % of Wild-Type Signal value.
Could you give me the number in %? Just the number is fine.

Q. Respond only with % of Wild-Type Signal recorded for WCPPKLEQWYDGCA (Group IV) [phage C2 (WCPPKLEQWYDGCA)]
A. -1

Q. Hello, please tell me recorded % of Wild-Type Signal for this one: SCKRTKAQILLAPCT (Group I; also called Cl) [phage C1 (SCKRTKAQILLAPCT)]
A. 1.2

Q. Identify the reported % of Wild-Type Signal for the following entry. LCSKAYLLLGQTC (Group I) [phage 2F (LCSKAYLLLGQTC)]
A. 32.6

Q. Specify % of Wild-Type Signal for SCEKRYGIEFCT [phage C4 (…)] and stop.
A. 67
